# Assay Procedure: Mean plasma quinine concentration over 24 hours after single oral dose of Quinine Sulfate (Example 6, Studies 1 and 2)
# Assay type: in vivo, human
# Measurement Setup: both sexes, human, plasma, oral, 324 mg, Study 2, C: 324 mg capsule, fasting; 12 hours
Where a name gives a salt, the structure may show the parent alone.
Measured Property: concentration at 12 h

For record C=C[C@H]1C[N@@]2CC[C@H]1C[C@H]2[C@H](O)c1ccnc2ccc(OC)cc12 [Quinine Sulfate] the listed concentration at 12 h is 994 ng/mL

###

# Assay Procedure: clinical
# Measurement Setup: human, plasma, oral, 324 mg
Structures can show the parent of a compound that is named as a salt.
Measured Property: Tmax (h)
Dear colleague, please return just the value in h, with no unit written.

For record C=C[C@H]1C[N@@]2CC[C@H]1C[C@H]2[C@H](O)c1ccnc2ccc(OC)cc12 [Quinine Sulfate] the listed Tmax is 2.75

###

# Assay Procedure: clinical
# Measurement Setup: human, in vivo, 648 mg, AUC0-INF
Structures can show the parent of a compound that is named as a salt.
Measured Property: AUC(0-inf) (ng·h/mL)
Dear colleague, please return just the value in ng·h/mL, with no unit written.

For record C=C[C@H]1C[N@@]2CC[C@H]1C[C@H]2[C@H](O)c1ccnc2ccc(OC)cc12 [Quinine Sulfate] the listed AUC(0-inf) is 59200

###

# Assay Procedure: Mean plasma quinine concentration over 24 hours after single oral dose of Quinine Sulfate (Example 6, Studies 1 and 2)
# Type: in vivo, human
# Measurement Setup: both sexes, human, plasma, oral, 648 mg, Study 2, D: 648 mg (two capsules), fasting; 0 hours
Structures can show the parent of a compound that is named as a salt.
Measured Property: concentration at 0 h (ng/mL)
Dear colleague, please return just the value in ng/mL, with no unit written.

For record C=C[C@H]1C[N@@]2CC[C@H]1C[C@H]2[C@H](O)c1ccnc2ccc(OC)cc12 [Quinine Sulfate] the listed concentration at 0 h is 0

###

# Assay Procedure: clinical
# Measurement Setup: human, plasma, oral, 324 mg
Structures can show the parent of a compound that is named as a salt.
Measured Property: Cmax (ng/mL)
Dear colleague, please return just the value in ng/mL, with no unit written.

For record C=C[C@H]1C[N@@]2CC[C@H]1C[C@H]2[C@H](O)c1ccnc2ccc(OC)cc12 [Quinine Sulfate] the listed Cmax is 2280

###

# Assay Procedure: Mean plasma quinine concentration over 24 hours after single oral dose of Quinine Sulfate (Example 6, Studies 1 and 2)
# Format: in vivo, human
# Measurement Setup: both sexes, human, plasma, oral, 648 mg, Study 2, D: 648 mg (two capsules), fasting; 6 hours
Where a name gives a salt, the structure may show the parent alone.
Measured Property: concentration at 6 h (ng/mL)
Dear colleague, please return just the value in ng/mL, with no unit written.

For record C=C[C@H]1C[N@@]2CC[C@H]1C[C@H]2[C@H](O)c1ccnc2ccc(OC)cc12 [Quinine Sulfate] the listed concentration at 6 h is 2720

###

# Assay Procedure: Mean plasma quinine concentration over 24 hours after single oral dose of Quinine Sulfate (Example 6, Studies 1 and 2)
# Type: in vivo, human
# Measurement Setup: both sexes, human, plasma, oral, 324 mg, Study 1, B: 324 mg capsule, fed; 6 hours
Counter-ions that a name gives are not always drawn.
Measured Property: concentration at 6 h

For record C=C[C@H]1C[N@@]2CC[C@H]1C[C@H]2[C@H](O)c1ccnc2ccc(OC)cc12 [Quinine Sulfate] the listed concentration at 6 h is 2010 ng/mL

###

# Assay Procedure: Mean plasma quinine concentration over 24 hours after single oral dose of Quinine Sulfate (Example 6, Studies 1 and 2)
# Assay type: in vivo, human
# Measurement Setup: both sexes, human, plasma, oral, 324 mg, Study 1, B: 324 mg capsule, fed; 4 hours
Counter-ions that a name gives are not always drawn.
Measured Property: concentration at 4 h (ng/mL)
Dear colleague, please return just the value in ng/mL, with no unit written.

For record C=C[C@H]1C[N@@]2CC[C@H]1C[C@H]2[C@H](O)c1ccnc2ccc(OC)cc12 [Quinine Sulfate] the listed concentration at 4 h is 2260

###

# Assay Procedure: Mean plasma quinine concentration over 24 hours after single oral dose of Quinine Sulfate (Example 6, Studies 1 and 2)
# Format: in vivo, human
# Measurement Setup: both sexes, human, plasma, oral, 324 mg, Study 2, C: 324 mg capsule, fasting; 4 hours
Counter-ions that a name gives are not always drawn.
Measured Property: concentration at 4 h (ng/mL)
Dear colleague, please return just the value in ng/mL, with no unit written.

For record C=C[C@H]1C[N@@]2CC[C@H]1C[C@H]2[C@H](O)c1ccnc2ccc(OC)cc12 [Quinine Sulfate] the listed concentration at 4 h is 1880

###

# Assay Procedure: Mean plasma quinine concentration over 24 hours after single oral dose of Quinine Sulfate (Example 6, Studies 1 and 2)
# Assay type: in vivo, human
# Measurement Setup: both sexes, human, plasma, oral, 324 mg, Study 2, C: 324 mg capsule, fasting; 2 hours
Where a name gives a salt, the structure may show the parent alone.
Measured Property: concentration at 2 h

For record C=C[C@H]1C[N@@]2CC[C@H]1C[C@H]2[C@H](O)c1ccnc2ccc(OC)cc12 [Quinine Sulfate] the listed concentration at 2 h is 1860 ng/mL

###

# Assay Procedure: Mean plasma quinine concentration over 24 hours after single oral dose of Quinine Sulfate (Example 6, Studies 1 and 2)
# Type: in vivo, human
# Measurement Setup: both sexes, human, plasma, oral, 648 mg, Study 2, D: 648 mg (two capsules), fasting; 2 hours
Structures can show the parent of a compound that is named as a salt.
Measured Property: concentration at 2 h (ng/mL)
Dear colleague, please return just the value in ng/mL, with no unit written.

For record C=C[C@H]1C[N@@]2CC[C@H]1C[C@H]2[C@H](O)c1ccnc2ccc(OC)cc12 [Quinine Sulfate] the listed concentration at 2 h is 2810

###

# Assay Procedure: clinical
# Measurement Setup: human, in vivo, 324 mg
Counter-ions that a name gives are not always drawn.
Measured Property: Tmax (h)
Dear colleague, please return just the value in h, with no unit written.

For record C=C[C@H]1C[N@@]2CC[C@H]1C[C@H]2[C@H](O)c1ccnc2ccc(OC)cc12 [Quinine Sulfate] the listed Tmax is 2.78

###

# Assay Procedure: clinical
# Measurement Setup: human, plasma, oral, 324 mg
Counter-ions that a name gives are not always drawn.
Measured Property: AUC0-t (ng·h/mL)
Dear colleague, please return just the value in ng·h/mL, with no unit written.

For record C=C[C@H]1C[N@@]2CC[C@H]1C[C@H]2[C@H](O)c1ccnc2ccc(OC)cc12 [Quinine Sulfate] the listed AUC0-t is 30300

###

# Assay Procedure: Mean plasma quinine concentration over 24 hours after single oral dose of Quinine Sulfate (Example 6, Studies 1 and 2)
# Type: in vivo, human
# Measurement Setup: both sexes, human, plasma, oral, 648 mg, Study 2, D: 648 mg (two capsules), fasting; 12 hours
Counter-ions that a name gives are not always drawn.
Measured Property: concentration at 12 h (ng/mL)
Dear colleague, please return just the value in ng/mL, with no unit written.

For record C=C[C@H]1C[N@@]2CC[C@H]1C[C@H]2[C@H](O)c1ccnc2ccc(OC)cc12 [Quinine Sulfate] the listed concentration at 12 h is 1700

###

# Assay Procedure: Mean plasma quinine concentration over 24 hours after single oral dose of Quinine Sulfate (Example 6, Studies 1 and 2)
# Type: in vivo, human
# Measurement Setup: both sexes, human, plasma, oral, 648 mg, Study 2, D: 648 mg (two capsules), fasting; 24 hours
Structures can show the parent of a compound that is named as a salt.
Measured Property: concentration at 24 h (ng/mL)
Dear colleague, please return just the value in ng/mL, with no unit written.

For record C=C[C@H]1C[N@@]2CC[C@H]1C[C@H]2[C@H](O)c1ccnc2ccc(OC)cc12 [Quinine Sulfate] the listed concentration at 24 h is 912

###

# Assay Procedure: Mean plasma quinine concentration over 24 hours after single oral dose of Quinine Sulfate (Example 6, Studies 1 and 2)
# Assay type: in vivo, human
# Measurement Setup: both sexes, human, plasma, oral, 324 mg, Study 1, B: 324 mg capsule, fed; 12 hours
Where a name gives a salt, the structure may show the parent alone.
Measured Property: concentration at 12 h (µg/mL)
Dear colleague, please return just the value in µg/mL, with no unit written.

For record C=C[C@H]1C[N@@]2CC[C@H]1C[C@H]2[C@H](O)c1ccnc2ccc(OC)cc12 [Quinine Sulfate] the listed concentration at 12 h is 1.22

###

# Assay Procedure: clinical
# Measurement Setup: human, in vivo, 648 mg, AUC0-t
Structures can show the parent of a compound that is named as a salt.
Measured Property: AUC0-t
Answer format: value, then unit.

For record C=C[C@H]1C[N@@]2CC[C@H]1C[C@H]2[C@H](O)c1ccnc2ccc(OC)cc12 [Quinine Sulfate] the listed AUC0-t is 54400 ng·h/mL

###

# Assay Procedure: clinical
# Measurement Setup: human, plasma, oral, 260 mg
Structures can show the parent of a compound that is named as a salt.
Measured Property: Tmax (h)
Dear colleague, please return just the value in h, with no unit written.

For record C=C[C@H]1C[N@@]2CC[C@H]1C[C@H]2[C@H](O)c1ccnc2ccc(OC)cc12 [Quinine Sulfate] the listed Tmax is 2.61
